Tgt: HRH1 (histamine receptor H1) (Homo sapiens)
Sequence (P35367 whole entry): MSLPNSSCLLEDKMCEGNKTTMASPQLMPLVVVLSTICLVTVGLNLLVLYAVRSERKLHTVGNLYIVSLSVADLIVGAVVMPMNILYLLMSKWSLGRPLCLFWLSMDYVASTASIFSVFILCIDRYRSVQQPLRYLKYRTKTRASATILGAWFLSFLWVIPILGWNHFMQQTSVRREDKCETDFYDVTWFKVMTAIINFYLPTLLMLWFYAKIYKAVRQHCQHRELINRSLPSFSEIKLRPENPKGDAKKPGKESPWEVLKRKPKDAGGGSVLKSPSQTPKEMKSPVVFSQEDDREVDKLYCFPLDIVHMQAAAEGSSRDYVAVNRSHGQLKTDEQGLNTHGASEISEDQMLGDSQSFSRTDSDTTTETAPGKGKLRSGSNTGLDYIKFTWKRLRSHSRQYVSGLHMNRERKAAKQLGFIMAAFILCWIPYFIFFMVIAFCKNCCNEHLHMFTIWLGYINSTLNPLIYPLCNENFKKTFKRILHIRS
Measurement Notes: biochemical
Assay type: binding
Stated Conditions: IC50 [μM]
Exercise: state measured IC50 for each of the compounds provided.
Report only the number, with the unit µM understood.

# query: IC50 | item "CCN(CC)CCCN(c1ccccc1)C1Cc2ccccc2C1" | system: HRH1 (histamine receptor H1) (Homo sapiens)
0.78

Look up IC50 with HRH1 (histamine receptor H1) (Homo sapiens) for this compound: CC(Cc1ccccc1)NCCC(c1ccccc1)c1ccccc1 (centres unmarked)
7.9

###

Tgt: PTGS1 (ovine COX-1) (Ovis aries, UniProt P05979)
Sequence (P05979 25-600): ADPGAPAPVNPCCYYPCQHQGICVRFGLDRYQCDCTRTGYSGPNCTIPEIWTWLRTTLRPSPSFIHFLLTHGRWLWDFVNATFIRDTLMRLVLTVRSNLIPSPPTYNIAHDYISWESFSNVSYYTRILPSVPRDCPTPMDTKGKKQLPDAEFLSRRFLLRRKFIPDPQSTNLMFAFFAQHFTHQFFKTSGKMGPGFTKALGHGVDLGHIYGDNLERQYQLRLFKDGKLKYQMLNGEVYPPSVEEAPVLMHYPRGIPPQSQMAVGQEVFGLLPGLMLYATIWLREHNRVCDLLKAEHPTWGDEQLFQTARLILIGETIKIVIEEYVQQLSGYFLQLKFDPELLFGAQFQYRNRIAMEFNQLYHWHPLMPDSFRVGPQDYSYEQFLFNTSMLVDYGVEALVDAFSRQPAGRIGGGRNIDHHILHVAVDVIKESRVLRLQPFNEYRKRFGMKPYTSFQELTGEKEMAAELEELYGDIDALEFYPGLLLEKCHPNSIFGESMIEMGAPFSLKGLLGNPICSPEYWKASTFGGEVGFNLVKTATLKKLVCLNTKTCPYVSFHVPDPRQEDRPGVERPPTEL
Measurement Name: IC50
Mention the unit after the number when you answer.

Fill in the blank: the reported IC50 of "COc1ccc(C(Cl)=C(c2ccc(OC)cc2)c2ccc(OC)cc2)cc1" is ____.
0.16 µM

###

Tgt: PGR (progesterone receptor) (Homo sapiens, UniProt P06401)
Sequence (P06401 679-913 limits assumed): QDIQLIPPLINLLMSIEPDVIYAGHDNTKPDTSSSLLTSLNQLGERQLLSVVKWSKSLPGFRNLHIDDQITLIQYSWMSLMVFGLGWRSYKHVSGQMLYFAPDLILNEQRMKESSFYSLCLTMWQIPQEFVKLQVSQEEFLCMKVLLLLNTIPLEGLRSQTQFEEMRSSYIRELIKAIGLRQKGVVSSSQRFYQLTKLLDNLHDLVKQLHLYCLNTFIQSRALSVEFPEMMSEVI
Measurement Notes: biochemical
Measurement Name: EC50 (µM)
Hi! Could you send only the number? It should be in µM, unit omitted.

What measured EC50 goes with "C[C@H]1C[C@@H]2[C@H]([C@@H](O)C[C@@]3(C)[C@H]2CC[C@]3(O)C(=O)CO)[C@@]2(C)C=CC(=O)C=C12" ?
1.3

###

Exercise: state measured IC50 for each of the compounds provided.
Tgt: HRH1 (histamine receptor H1) (Homo sapiens)
Measurement Notes: biochemical
Assay type: binding
Stated Conditions: Activity (μM) (median)
Kindly provide the numeric value in µM only, without the unit symbol.

// IC50 lookup, key: CC(Cc1ccccc1)NCCC(c1ccccc1)c1ccccc1 (centres unmarked)
7.87

Given "CN(C)CCC=C1c2ccccc2C=Cc2ccccc21" , state its recorded IC50.
0.02

###

Tgt: OPRM1 (opioid receptor, mu 1) (Homo sapiens)
Sequence (P35372 whole entry): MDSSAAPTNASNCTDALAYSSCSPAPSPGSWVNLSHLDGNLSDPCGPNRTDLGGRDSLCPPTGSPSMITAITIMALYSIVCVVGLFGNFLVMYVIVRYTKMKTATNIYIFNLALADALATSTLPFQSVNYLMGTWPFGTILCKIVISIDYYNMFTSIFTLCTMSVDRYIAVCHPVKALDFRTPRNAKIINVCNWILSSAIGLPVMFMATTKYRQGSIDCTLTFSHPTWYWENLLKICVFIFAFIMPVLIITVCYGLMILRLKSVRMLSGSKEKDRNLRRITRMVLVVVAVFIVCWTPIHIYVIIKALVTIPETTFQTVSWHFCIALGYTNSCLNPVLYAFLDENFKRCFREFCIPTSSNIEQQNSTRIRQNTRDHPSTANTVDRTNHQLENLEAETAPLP
Measurement Notes: OPRM1 functional agonist assay
Assay type: cell-based
Stated Conditions: Activity (μM) (median), target OPRM1; agonist per Figure S1E
Measurement Name: EC50 (µM)
Give just the numeric value; µM need not be written.

Fill in: EC50 of CC(NCCc1ccc(O)cc1)C(O)c1ccc(O)cc1 (stereo not shown) is ___
9.18
